The reported measurements were obtained from patent EP4663661A1.

target: human CDH6 with EC2 removed, on HEK293T cells (HEK293T-hCDH6-EC2 deletion) (human) (UniProt P55285); assay: FACS, HEK293T-hCDH6-EC2 deletion cells
// NB: equality with 8000 MFI counts as Not satisfied; only Max MFI strictly below is Satisfied

Exercise: # check: Max MFI < 8000 MFI for CHI-CDH6-14 (antibody, human IgG1, kappa, V domains shown, also called CHI- hCDH6-14) VH: QIQLQQSGPELVKPGTSVKISCKASGYTFTDNYINWVRQRPGQGLEWIGWIYPGTGNSYYNEKFKGKATLTVDTSSSTAYMQFSSLTSEDSAVYLCASSYGDSFDYWGQGTTLTVSS VL: DIQMTQTTSSLSASLGNRVTISCRASQDIRNYLNWYQQKPDGTFKLLISYTSRLHSGVPSRFSGSGSGTDYSLTVSNLEPEDIATYYCQQYSQLPWTFGGGSRLEIKR
Solution: Satisfied

Exercise: # check: Max MFI < 8000 MFI for NOV0712 (antibody, human IgG1, kappa, V domains shown) VH: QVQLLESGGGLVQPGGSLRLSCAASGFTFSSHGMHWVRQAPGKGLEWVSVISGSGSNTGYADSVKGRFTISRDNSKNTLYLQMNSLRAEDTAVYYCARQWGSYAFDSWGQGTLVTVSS VL: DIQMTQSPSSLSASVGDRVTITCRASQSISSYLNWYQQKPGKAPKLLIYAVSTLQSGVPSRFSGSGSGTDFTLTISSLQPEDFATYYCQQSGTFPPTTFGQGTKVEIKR
Solution: Not satisfied

Exercise: # check: Max MFI < 8000 MFI for CHI-CDH6-4 (antibody, human IgG1, kappa, V domains shown) VH: QVQLQQSGPELVKPGASVKISCKASGYAFSNFWMNWVKQRPGKGLEWIGWIYPGDGDTNYNGKFKDKATLTADKSSSTAYIQLSSLTSEDSAVYFCARLYDAWGFFDYWGQGTTLTVSS VL: QIVLTQSPAIMSASPGQKVTITCSASSSVNYMHWYQQKLGSSPKLWIYDKSKLAPGVPARFSGSGSGTSYSLTISSMEAEDAASYFCHQWSSYPPMTFGGGTKLEIKR
Solution: Satisfied

Exercise: # check: Max MFI < 8000 MFI for DS-H01L02 (antibody, human IgG1, kappa, V domains shown) VH: EVQLVQSGAEVKKPGASVKVSCKASGYTFTRNFMHWVRQAPGQGLEWMGWIYPGDGETEYAQKFQGRVTITADTSTSTAYMELSSLRSEDTAVYYCARGVYGGFAGGYFDFWGQGTLVTVSS VL: DIQMTQSPSSLSASVGDRVTITCKASQNIYKNLAWYQQKPGKAPKLLIYDANTLQTGVPSRFSGSGSGSDFTLTISSLQPEDFATYFCQQYYSGWAFGQGTKVEIKR
Solution: Not satisfied

Exercise: # check: Max MFI < 8000 MFI for CHI-CDH6-3 (antibody, human IgG1, kappa, V domains shown) VH: QVQLQQPGAELVKPGASVKLSCKASGYTFTSYWIHWVKQRPGQGLEWIGEINPSNGVTNCNENFKSKATLTVDKSSSTAYMQLSSLTSEDSAVYYCTIPNLLWWYFDVWGAGTTVTVSS VL: DIQMTQSPASLSVSVGETVTITCRASENIYSNLAWYQQKQGKSPQLLVYEATNLADGVPSRFSGSGSGTQYSLKINSLQSEDFGSYYCQHFWGTLWTFGGGTKLEIKR
Solution: Satisfied

Exercise: # check: Max MFI < 8000 MFI for CHI-CDH6-5 (antibody, human IgG1, kappa, V domains shown) VH: QVQLQQSGAELVRPGTSVKMSCKAAEYTFTNYWIGWVKQRPGHGLEWIGDLYPGGDHANYNEKFEGKATLTADTSSSTAYMQLSSLTSEDSAIYYCARGMLTTGFDSWGQGTTLTVSS VL: DIVMSQSPSSLAVSAGEKVTMSCKSSQSLFNSRTRKNYLAWYQQKPGQSPKLLIYWASTRESGVPDRFTGSGSGTDFTLTISSVQAEDLAVYYCKQSYYLRTFGGGTKLEIKR
Solution: Satisfied

Exercise: # check: Max MFI < 8000 MFI for CHI-CDH6-7 (antibody, human IgG1, kappa, V domains shown) VH: EVKLVESGGGLVKPGGSLKVSCAASGFTFSDHGMAWVRQAPGKGPEWVAFISNLAYSIYYADTVTGRFTISRENAKNTLYLEMSSLRSEDTAMYYCARVYVKWYFDVWGAGTTVTVSS VL: DIQMTQSPASLSASVGETVTITCRASENIDSYLAWYQQKQGKSPQLLVFAATLLADGVPSRFSGSGSGTQYSLKINSLQSEDVARYYCQHYYSTPLTFGAGTKLELKR
Solution: Not satisfied
